System: Saccharomyces cerevisiae BY4741 SeMeCo community
assaySummary: z-score of subpopulation abundance vs DMSO median, subpopulation auxotrophic for U; higher = larger share of this subpopulation than in DMSO controls
recordedConditions: 10 µM; 24 h; SM minimal medium; subpopulation (auxotrophy): U
Structures can show the parent of a compound that is named as a salt.
endpoint: z-score of subpopulation abundance
Number, no unit, nothing else.

Here are 3 compounds together with their reported answers.
CN1[C@@H](CC(=O)c2ccccc2)CCC[C@H]1C[C@H](O)c1ccccc1 [Lobeline hydrochloride] :: 0.36
Nc1c(Br)cc(Br)cc1CN[C@H]1CC[C@H](O)CC1 [Ambroxol HCl] :: -0.79
CN1CCN(c2cc3c(cc2F)c(=O)c(C(=O)O)cn3-c2ccc(F)cc2)CC1 [Difloxacin hydrochloride] :: -0.57

From here, focus on the item given below.
## Input Endpoint output: z-score of subpopulation abundance of CCCCN1CCCCC1C(=O)Nc1c(C)cccc1C (centres undefined) [Bupivacaine HCl] . Value?
## Output 0.36
